Biological target: Melanocortin receptor 3 (Homo sapiens, UniProt P41968)
Sequence (P41968 whole entry): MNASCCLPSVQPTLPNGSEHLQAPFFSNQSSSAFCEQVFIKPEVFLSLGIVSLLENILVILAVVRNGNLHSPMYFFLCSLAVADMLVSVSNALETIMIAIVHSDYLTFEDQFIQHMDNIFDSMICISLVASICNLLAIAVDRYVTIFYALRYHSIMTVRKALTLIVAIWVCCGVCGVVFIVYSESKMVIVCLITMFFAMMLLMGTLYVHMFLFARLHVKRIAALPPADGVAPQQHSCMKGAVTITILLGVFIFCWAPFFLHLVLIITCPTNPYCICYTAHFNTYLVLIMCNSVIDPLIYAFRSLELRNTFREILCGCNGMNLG
Experiment: Tested for its binding affinity towards human recombinant Melanocortin 3 receptor by using radioligand binding assay
pKi: −log10 of the molar value.
measurementName: pKi

In the examples that follow, each entry is paired with its recorded pKi.
compound: NC(N)=NCCC[C@H](N)C(=O)N(Cc1ccc2ccccc2c1)Cc1cccc2ccccc12 (stereo in doubt; 11c)
measuredTarget: Melanocortin receptor 3 (Homo sapiens, UniProt P41968)
measurementName: pKi
readoutNumber: 4.74
//
compound: NCCNC(=O)[C@H](CNCc1ccc2ccccc2c1)NCc1ccc2ccccc2c1
measuredTarget: Melanocortin receptor 3 (Homo sapiens, UniProt P41968)
measurementName: pKi
readoutNumber: 4.24
//
compound: NCCCNCc1c[nH]c2ccccc12
measuredTarget: Melanocortin receptor 3 (Homo sapiens, UniProt P41968)
measurementName: pKi
readoutNumber: 3.84
//
compound: NCCCCNC(=O)[C@H](CCCCNCc1c[nH]c2ccccc12)NCc1ccc2ccccc2c1
measuredTarget: Melanocortin receptor 3 (Homo sapiens, UniProt P41968)
measurementName: pKi
readoutNumber: 3.78

I: NC(N)=NCCC[C@H](N)C(=O)N(Cc1cccc2ccccc12)Cc1c[nH]c2ccccc12
II: c1ccc2c(CNCc3c[nH]c4ccccc34)cccc2c1
III: NC(N)=NCCC[C@H](N)C(=O)N(Cc1ccc2ccccc2c1)Cc1cccc2ccccc12 (stereo in doubt; 11b)
Ask | Ascending sort, pKi. Write the labels out in the order the request specifies.
Reply | II, I, III
(II: 3.67, I: 4.28, III: 5.05)

---

Biological target: Melanocortin receptor 4 (Homo sapiens, UniProt P32245)
Sequence (P32245 whole entry): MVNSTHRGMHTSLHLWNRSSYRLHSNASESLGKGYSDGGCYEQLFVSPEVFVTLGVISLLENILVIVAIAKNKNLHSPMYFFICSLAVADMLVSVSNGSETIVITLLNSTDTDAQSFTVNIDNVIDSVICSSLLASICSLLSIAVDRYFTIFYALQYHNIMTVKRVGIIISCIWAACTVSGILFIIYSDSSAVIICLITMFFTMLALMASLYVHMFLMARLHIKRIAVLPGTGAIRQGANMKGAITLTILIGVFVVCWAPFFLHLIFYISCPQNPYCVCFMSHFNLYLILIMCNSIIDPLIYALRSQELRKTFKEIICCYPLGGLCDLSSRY
Experiment: Tested for its binding affinity towards human recombinant Melanocortin 4 receptor by using radioligand binding assay
pKi: −log10 of the molar value.
measurementName: pKi

In the examples that follow, each entry is paired with its recorded pKi.
smilesText: N=C(N)N1CCN(Cc2c[nH]c3ccccc23)CC1
result: < 3.00
//
smilesText: c1ccc2c(CN3CCNCC3)c[nH]c2c1
result: < 3.00

Ask | Bench note: what pKi did c1ccc2cc(CNCc3cccc4ccccc34)ccc2c1 show?
Reply | < 3.00

---

Target: Melanocortin receptor 5 (Homo sapiens, UniProt P33032)
Sequence (P33032 whole entry): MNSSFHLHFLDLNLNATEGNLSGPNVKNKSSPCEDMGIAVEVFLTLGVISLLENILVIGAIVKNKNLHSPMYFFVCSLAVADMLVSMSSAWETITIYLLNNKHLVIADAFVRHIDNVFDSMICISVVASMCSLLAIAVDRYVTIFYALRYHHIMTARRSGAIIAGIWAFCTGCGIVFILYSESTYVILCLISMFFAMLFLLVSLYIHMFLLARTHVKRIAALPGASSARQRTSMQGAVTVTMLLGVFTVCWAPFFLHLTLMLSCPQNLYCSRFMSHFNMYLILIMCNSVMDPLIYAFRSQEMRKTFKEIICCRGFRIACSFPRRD
Test: Tested for its binding affinity towards human recombinant Melanocortin 5 receptor by using radioligand binding assay
measurementName: Ki (µM)
API: value field is a number in µM; no unit string.

In the examples that follow, each entry is paired with its recorded Ki.
smilesText: NCCCNCc1c[nH]c2ccccc12
Ki, µM: 150

smilesText: N=C(N)NCCCNCc1ccc2ccccc2c1
Ki, µM: 36

Kindly review the next compound as well.
Ask | Bench note: what Ki did c1ccc2c(CCNCc3c[nH]c4ccccc34)c[nH]c2c1 show?
Reply | 18
